The measurements presented in this section are drawn from patent US9403822B2.

Test: Solubility determination in aqueous media
Conditions: phosphate buffer, pH 7.4, aqueous buffer, thermodynamic from solid
Below, each entry is listed alongside its reported solubility.

# count of solved cases: 4
CC1(C)CCC(CN2CCN(c3ccc(C(=O)NS(=O)(=O)c4ccc(NCC5CCOCC5)c([N+](=O)[O-])c4)c(Oc4cnc5[nH]ccc5c4)c3)CC2)=C(c2ccc(Cl)cc2)C1; < 4 µg/mL
CC1(C)CCC(CN2CCN(c3ccc(C(=O)NS(=O)(=O)c4ccc(OCC5(F)CCOCC5)c([N+](=O)[O-])c4)c(Oc4cnc5[nH]ccc5c4)c3)CC2)=C(c2ccc(Cl)cc2)C1; < 1 µg/mL
CC1(C)CCC(CN2CCN(c3ccc(C(=O)NS(=O)(=O)c4ccc(OC[C@H]5CC[C@H](O)CC5)c([N+](=O)[O-])c4)c(Oc4cnc5[nH]ccc5c4)c3)CC2)=C(c2ccc(Cl)cc2)C1; < 1 µg/mL
CC(C)(CO)CNc1ccc(S(=O)(=O)NC(=O)c2ccc(N3CCN(CC4=C(c5ccc(Cl)cc5)CC(C)(C)CC4)CC3)cc2Oc2cnc3[nH]ccc3c2)cc1[N+](=O)[O-]; < 1 µg/mL

Please turn your attention to the following entry.
Answer with the recorded solubility for the compound listed here: CO[C@H]1CC[C@H](CNc2ccc(S(=O)(=O)NC(=O)c3ccc(N4CCN(CC5=C(c6ccc(Cl)cc6)CC(C)(C)CC5)CC4)cc3Oc3cnc4[nH]ccc4c3)cc2[N+](=O)[O-])CC1 < 1 µg/mL
